Origin of values: patent US8993765B2

Ki by entry:
Target: UniProt:Q99705
Assay: Binding Assay for Human Melanin-Concentrating Hormone (MCH-1) Receptor
Details: radioligand displacement, membranes of CHO-K1 cells expressing human MCH-1 receptor; Ki by Cheng Prusoff equation; read-out: MCH1 Ki
Structures can show the parent of a compound that is named as a salt.

>  <compound>
CC1Cc2c(c3ccc(-n4ccc(OCc5ccc(F)cn5)cc4=O)nc3n2C)CN1.Cl (stereo not shown) [Example 14, hydrochloride]

>  <experimental system>
UniProt:Q99705

>  <Ki (nM)>
25

$$$$
>  <compound>
O=c1cc(-c2ccc(C(F)(F)F)nc2)ccn1-c1ccn2c3c(nc2c1)CCNC3 [Example 24, hydrochloride]

>  <experimental system>
UniProt:Q99705

>  <Ki (nM)>
616

$$$$
>  <compound>
Cl.O=c1cc(OCc2ccccc2)ccn1-c1ccn2c3c(nc2c1)CCNC3 [Example 22, hydrochloride]

>  <experimental system>
UniProt:Q99705

>  <Ki (nM)>
21

$$$$
>  <compound>
CC(=O)N1CCc2c(c3ccc(-n4ccc(-c5ccc(C(F)(F)F)nc5)cc4=O)nc3n2C)C1

>  <experimental system>
UniProt:Q99705

>  <Ki (nM)>
78

$$$$
>  <compound>
Cn1c2c(c3ccc(-n4ccc(OCc5ccccc5)cc4=O)nc31)CNCC2 [Example 2, dihydrochloride]

>  <experimental system>
UniProt:Q99705

>  <Ki (nM)>
7.1

$$$$
>  <compound>
CC(C)N1CCn2c(nc3cc(-n4ccc(OCc5ccccc5)cc4=O)ccc32)C1 [Example 21, hydrochloride]

>  <experimental system>
UniProt:Q99705

>  <Ki (nM)>
94

$$$$
>  <compound>
Cn1c2c(c3ccc(-n4ccc(OCc5ccc(F)cn5)cc4=O)nc31)CNCC2 [Example 4, hydrochloride]

>  <experimental system>
UniProt:Q99705

>  <Ki (nM)>
15

$$$$

====

pKi by entry:
Biological target: human MCH-1 receptor (Homo sapiens (Human), UniProt Q99705)
Sequence (Q99705 whole entry): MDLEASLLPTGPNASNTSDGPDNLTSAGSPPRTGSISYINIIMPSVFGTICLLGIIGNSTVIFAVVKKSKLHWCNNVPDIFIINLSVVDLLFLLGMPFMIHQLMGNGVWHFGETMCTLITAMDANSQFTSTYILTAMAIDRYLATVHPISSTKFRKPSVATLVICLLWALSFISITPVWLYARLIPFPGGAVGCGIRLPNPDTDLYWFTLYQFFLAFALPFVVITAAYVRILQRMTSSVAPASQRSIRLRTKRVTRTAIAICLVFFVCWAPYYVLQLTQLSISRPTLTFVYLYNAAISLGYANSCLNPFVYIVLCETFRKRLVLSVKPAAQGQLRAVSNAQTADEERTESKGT
Experiment: Binding Assay for Human Melanin-Concentrating Hormone (MCH-1) Receptor
Conditions: radioligand displacement, membranes of CHO-K1 cells expressing human MCH-1 receptor; Ki by Cheng Prusoff equation; read-out: MCH1 Ki
Method: Binding Assay for Human Melanin-Concentrating Hormone (MCH-1) Receptor […] The results are expressed as a percent inhibition of the control radioligand specific binding. The IC50 value (concentration causing a half-maximal inhibition of control specific binding) and Hill coefficient (nH) were determined by non-linear regression analysis of the competition curve using Hill equation curve fitting. […]
pKi: −log10 of the molar value. Structures can show the parent of a compound that is named as a salt.

>  <molecule>
Cn1c2c(c3ccc(N4CCN(CCc5ccccc5)CC4=O)nc31)CNCC2 [Example 3, dihydrochloride]

>  <experimental system>
human MCH-1 receptor (Homo sapiens (Human), UniProt Q99705)

>  <pKi>
7.33

$$$$
>  <molecule>
CC1Cc2c(c3ccc(N4CCN(CCc5ccc(F)cc5)CC4=O)nc3n2C)CN1.Cl (centres unmarked) [Example 12, hydrochloride]

>  <experimental system>
human MCH-1 receptor (Homo sapiens (Human), UniProt Q99705)

>  <pKi>
7.24

$$$$
>  <molecule>
CC(=O)N1CCc2c(c3ccc(-n4ccc(OCc5ccccc5)cc4=O)nc3n2C)C1 [Example 11]

>  <experimental system>
human MCH-1 receptor (Homo sapiens (Human), UniProt Q99705)

>  <pKi>
7.15

$$$$
>  <molecule>
Cl.Cn1c2c(c3ccc(-n4ccc(-c5ccc(C(F)(F)F)cc5)cc4=O)nc31)CNCC2 [Example 10, hydrochloride]

>  <experimental system>
human MCH-1 receptor (Homo sapiens (Human), UniProt Q99705)

>  <pKi>
8.33

$$$$
>  <molecule>
CC(C)N1CCc2nc3cc(-n4ccc(OCc5ccccc5)cc4=O)ccn3c2C1 [Example 27, hydrochloride]

>  <experimental system>
human MCH-1 receptor (Homo sapiens (Human), UniProt Q99705)

>  <pKi>
7.72

$$$$
>  <molecule>
Cn1c2c(c3ccc(-n4ccc(OCc5ccccc5)cc4=O)nc31)C(=O)NCC2 [Example 28]

>  <experimental system>
human MCH-1 receptor (Homo sapiens (Human), UniProt Q99705)

>  <pKi>
6.99

$$$$
>  <molecule>
Cn1c2c(c3ccc(-n4ccc(-c5ccc(C(F)(F)F)nn5)cc4=O)nc31)CNCC2 [Example 5, hydrochloride]

>  <experimental system>
human MCH-1 receptor (Homo sapiens (Human), UniProt Q99705)

>  <pKi>
6.98

$$$$
>  <molecule>
Cn1c2c(c3ccc(-n4ccc(-c5ccc(C(F)(F)F)cn5)cc4=O)nc31)CNCC2 [Example 8, hydrochloride]

>  <experimental system>
human MCH-1 receptor (Homo sapiens (Human), UniProt Q99705)

>  <pKi>
7.48

$$$$
>  <molecule>
Cl.Cn1c2c(c3ccc(-n4ccc(OCc5ccc(F)cc5F)cc4=O)nc31)CNCC2 [Example 16, hydrochloride]

>  <experimental system>
human MCH-1 receptor (Homo sapiens (Human), UniProt Q99705)

>  <pKi>
8.08

$$$$
>  <molecule>
Cn1c2c(c3ccc(-n4ccc(OCc5ccc(Cl)cc5Cl)cc4=O)nc31)CNCC2 [Example 15, hydrochloride]

>  <experimental system>
human MCH-1 receptor (Homo sapiens (Human), UniProt Q99705)

>  <pKi>
7.77

$$$$
>  <molecule>
CC(=O)N1Cc2c(n(C)c3nc(-n4ccc(OCc5ccccc5)cc4=O)ccc23)CC1C (single isomer, unassigned; enantiomer a) [Example 29]

>  <experimental system>
human MCH-1 receptor (Homo sapiens (Human), UniProt Q99705)

>  <pKi>
7.09

$$$$
>  <molecule>
O=c1cc(OCc2ccc(F)cn2)ccn1-c1ccn2c3c(nc2c1)CCNC3 [Example 23, hydrochloride]

>  <experimental system>
human MCH-1 receptor (Homo sapiens (Human), UniProt Q99705)

>  <pKi>
7.52

$$$$
>  <molecule>
O=c1cc(OCc2ccccc2)ccn1-c1ccc2c(c1)nc1n2CCNC1 [Example 18, hydrochloride]

>  <experimental system>
human MCH-1 receptor (Homo sapiens (Human), UniProt Q99705)

>  <pKi>
7.21

$$$$
>  <molecule>
O=c1cc(OCc2ccc(C(F)(F)F)nc2)ccn1-c1ccn2c3c(nc2c1)CCNC3 [Example 25, hydrochloride]

>  <experimental system>
human MCH-1 receptor (Homo sapiens (Human), UniProt Q99705)

>  <pKi>
5.48

$$$$
>  <molecule>
Cn1c2c(c3ccc(-n4ccc(OCc5ccc(C(F)(F)F)nc5)cc4=O)nc31)CNCC2 [Example 7, hydrochloride]

>  <experimental system>
human MCH-1 receptor (Homo sapiens (Human), UniProt Q99705)

>  <pKi>
7.15

$$$$
>  <molecule>
Cn1c2c(c3ccc(-n4ccc(-c5ccc(C(F)(F)F)nc5)cc4=O)nc31)CNCC2 [Example 6, hydrochloride]

>  <experimental system>
human MCH-1 receptor (Homo sapiens (Human), UniProt Q99705)

>  <pKi>
7.82

$$$$
>  <molecule>
O=c1cc(-c2ccc(C(F)(F)F)cc2)ccn1-c1ccn2c3c(nc2c1)CCNC3 [Example 26, hydrochloride]

>  <experimental system>
human MCH-1 receptor (Homo sapiens (Human), UniProt Q99705)

>  <pKi>
7.64

$$$$
